- target: CYP2C8 (Homo sapiens (Human), UniProt P10632)
- Sequence (P10632 whole entry): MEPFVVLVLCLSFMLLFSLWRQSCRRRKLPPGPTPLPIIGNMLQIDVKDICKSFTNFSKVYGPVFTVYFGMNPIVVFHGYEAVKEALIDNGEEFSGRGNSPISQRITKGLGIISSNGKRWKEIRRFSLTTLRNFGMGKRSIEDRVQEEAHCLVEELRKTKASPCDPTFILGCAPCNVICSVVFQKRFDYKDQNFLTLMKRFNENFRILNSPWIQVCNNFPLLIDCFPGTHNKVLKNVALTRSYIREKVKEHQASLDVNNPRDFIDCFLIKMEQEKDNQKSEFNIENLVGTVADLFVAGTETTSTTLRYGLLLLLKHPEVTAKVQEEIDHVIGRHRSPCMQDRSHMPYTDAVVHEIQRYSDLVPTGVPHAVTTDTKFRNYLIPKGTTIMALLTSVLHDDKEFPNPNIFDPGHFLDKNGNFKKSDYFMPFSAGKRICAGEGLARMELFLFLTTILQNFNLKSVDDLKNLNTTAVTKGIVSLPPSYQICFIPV
- assay procedure: CYP inhibition, fluorogenic substrate
- Assay type: in vitro ADME
- Design: dose or concentration left out as unconfirmed
- condition context: recombinant CYP2C8, pH 7.4
Provide the recorded inhibition for the entries that follow.
One number for each entry, in %.

Example entries begin here.
COc1cc2c(cc1Cl)nc(OC)n2CCNC(C)=O    -13
CCOc1nc2cc(Cl)c(OC)cc2n1CCCNC(C)=O    -4.7
CCOc1nc2ccc(OC)cc2n1CCCNC(C)=O    9.1
COc1ccc2cccc(CCNC(C)=O)c2c1 [IA2-76, agomelatine, reference compound]    12.9
CCOc1nc2cc(Cl)c(OC)cc2n1CCNC(C)=O    7

Tell me the measured inhibition of COc1ccc2nc(OC)n(CCCNC(C)=O)c2c1 , please.
-2.2

###

Record form. Attribute: inhibition. Fill in for each entry.
- target: CYP2D6 (Homo sapiens (Human), UniProt P10635)
- Sequence (P10635 whole entry): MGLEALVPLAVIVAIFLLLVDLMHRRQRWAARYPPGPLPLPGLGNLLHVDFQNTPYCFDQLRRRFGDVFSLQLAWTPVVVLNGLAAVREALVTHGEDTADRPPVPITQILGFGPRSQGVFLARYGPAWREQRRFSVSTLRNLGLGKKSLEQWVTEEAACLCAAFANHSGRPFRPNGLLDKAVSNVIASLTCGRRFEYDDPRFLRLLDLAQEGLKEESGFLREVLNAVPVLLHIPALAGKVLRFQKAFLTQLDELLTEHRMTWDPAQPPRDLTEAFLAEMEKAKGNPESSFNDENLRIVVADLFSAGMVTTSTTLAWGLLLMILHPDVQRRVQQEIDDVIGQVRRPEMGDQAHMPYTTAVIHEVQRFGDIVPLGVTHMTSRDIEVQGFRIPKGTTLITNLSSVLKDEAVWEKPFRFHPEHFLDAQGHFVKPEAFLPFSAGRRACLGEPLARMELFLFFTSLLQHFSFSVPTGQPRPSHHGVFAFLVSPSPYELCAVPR
- assay procedure: CYP inhibition, fluorogenic substrate
- Format: in vitro ADME
- Set-up: dose or concentration left out as unconfirmed
- condition context: recombinant CYP2D6, pH 7.4
The reply should read as a number followed by its unit.

For orientation, consider the following solved cases.
COc1ccc2nc(OC)n(CCCNC(C)=O)c2c1    0.3%
CCOc1nc2cc(Cl)c(OC)cc2n1CCCNC(C)=O    6.9%
CCOc1nc2cc(Cl)c(OC)cc2n1CCNC(C)=O    0.9%
CCOc1nc2ccc(OC)cc2n1CCCNC(C)=O    -0.3%
COc1cc2c(cc1Cl)nc(OC)n2CCNC(C)=O    0.8%

// switching to the query molecule
# get_value(readout='inhibition', item= COc1ccc2cccc(CCNC(C)=O)c2c1 [IA2-76, agomelatine, reference compound] )
7.9%

###

- assay procedure: Pharmacokinetics (PK) in rat, I.V. and oral
- Assay type: in vivo, Wistar-Han rats
- condition context: Wistar-Han, plasma, oral 10 mg/kg vs intravenous 1 mg/kg, read-out: F (%) bioavailability
assay readout: bioavailability
Give me the value, and tack the unit on after it.

# lookup: bioavailability of COc1ccc2cccc(CCNC(C)=O)c2c1 [IA2-76, agomelatine, reference compound]
22.6%

###

- System: mouse hepatocytes (CD-1 males)
- assay procedure: Intrinsic clearance in cryopreserved mouse hepatocytes
- Assay type: in vitro ADME
assay readout: Intrinsic clearance half-life, Mouse CD-1

See these solved cases before continuing.
COc1ccc2cccc(CCNC(C)=O)c2c1 [IA2-76, agomelatine, reference compound]    0.417 h
CCOc1nc2cc(Cl)c(OC)cc2n1CCCNC(C)=O    >2 h
CCOc1nc2ccc(OC)cc2n1CCCNC(C)=O    >2 h
CCOc1nc2cc(Cl)c(OC)cc2n1CCNC(C)=O    >2 h

Read the next record carefully.
Can you look up the measured Intrinsic clearance half-life, Mouse CD-1 of COc1ccc2nc(OC)n(CCCNC(C)=O)c2c1 for me?
>2 h

###

For each record, write down the corresponding Intrinsic clearance half-life, Rat Sprague-Dawley.
- System: rat hepatocytes (Sprague-Dawley males)
- assay procedure: Intrinsic clearance in cryopreserved rat hepatocytes
- Format: in vitro ADME
- Procedure: Cryopreserved hepatocytes from humans, rats (Sprague-Dawley males) and from mice (CD-1 males) were used for incubation at different times (0, 0.5, 1, 1.5, 2 hours) at 37° C. followed by HPLC-MS/MS detection. The aim was to verify the clearance time of the test substance on hepatocytes. The experiment was performed on a 96-well plate and the cryopreserved hepatocytes were thawed and resuspended in Krebs-Heinslet buffer(pH 7.3). […]
Answers are plain numbers, in h.

COc1cc2c(cc1Cl)nc(OC)n2CCNC(C)=O    1.8
CCOc1nc2ccc(OC)cc2n1CCCNC(C)=O    0.883
CCOc1nc2cc(Cl)c(OC)cc2n1CCNC(C)=O    0.867

Attention now shifts to the item below.
Name the reported Intrinsic clearance half-life, Rat Sprague-Dawley value associated with the compound COc1ccc2cccc(CCNC(C)=O)c2c1 [IA2-76, agomelatine, reference compound]
0.833

The origin of these recorded values is patent US10781182B2.
